target: TBK1 (Homo sapiens, UniProt Q9UHD2); construct: purchased Promega V3991; assay: TBK1 inhibition, ADP-Glo Kinase Assay; assay type: biochemical; conditions: luminometer
property-name: IC50

[
  {
    "compound": "COC(=O)c1cc2[nH]nc(-c3ccc(N4CCOCC4)cc3)c2s1 [Example 254]",
    "result": "> 10 µM"
  }
]

Field IC50 (system: TBK1 (Homo sapiens, UniProt Q9UHD2)) for entry O=C(NCc1ccc(C(F)(F)F)cc1)c1ccc2[nH]nc(NC(=O)c3ccc(F)cc3)c2c1 [Example 21] = > 10 µM

With TBK1 (Homo sapiens, UniProt Q9UHD2) as the test system, Cc1cnc(-c2cc3[nH]nc(-c4ccc(N5CCOCC5)cc4)c3s2)o1 [Example 243] showed IC50 of > 10 µM

Query O=C(NCc1cccs1)c1ccc2[nH]nc(NS(=O)(=O)c3ccccc3)c2c1 [Example 39] on TBK1 (Homo sapiens, UniProt Q9UHD2); IC50 returned: > 10 µM

###

molecular target: TBK1 (Homo sapiens, UniProt Q9UHD2); construct: purchased Promega V3991; assay: TBK1 inhibition, ADP-Glo Kinase Assay; assay type: biochemical; conditions: luminometer
property-name: IC50 (µM)

# count of solved cases: 3
[
  {
    "compound": "O=C(NCc1cccs1)c1ccc2[nH]nc(NC(=O)c3ccc(NCCN4CCCC4)cc3)c2c1 [Example 152]",
    "value-unit": "µM",
    "IC50": 0.004
  },
  {
    "compound": "CC(C)CCNC(=O)c1ccc2[nH]nc(NC(=O)c3ccc(N4CCOCC4)cc3)c2c1 [Example 116, 2,2,2-trifluoroacetate]",
    "value-unit": "µM",
    "IC50": 0.48
  },
  {
    "compound": "O=C(Nc1n[nH]c2ccc(C(=O)NC3(c4cccnc4)CC3)cc12)c1ccc(F)cc1 [Example 217]",
    "value-unit": "µM",
    "IC50": 0.52
  }
]

A. O=C(NCc1ccc(C(F)(F)F)nc1)c1ccc2[nH]nc(NC(=O)c3ccc(N4CCOCC4)cc3)c2c1 [Example 71]
B. CN1CCN(c2ccc(C(=O)Nc3n[nH]c4ccc(C(=O)NC(C)(C)c5ccccc5)cc34)cc2)CC1 [Example 63]
Hi there! Just curious which has the higher IC50 between A and B . Give the chosen item's label as your response. A
(A: 0.44 µM, B: 0.0094 µM)

###

target: TBK1 (Homo sapiens, UniProt Q9UHD2); construct: purchased Promega V3991; experiment: TBK1 inhibition, ADP-Glo Kinase Assay; assay type: biochemical; conditions: luminometer
property-name: IC50 (µM)

I. O=C(NCc1cccs1)c1ccc2[nH]nc(NC(=O)c3ccc(NC4CCCC4)cc3)c2c1
II. Cc1cnc(-c2cc3[nH]nc(NC(=O)c4ccc(F)cc4)c3s2)o1
III. O=C(NCc1cccs1)c1ccc2[nH]nc(NC(=O)c3ccc(N4CCOCC4)cc3N3CCOCC3)c2c1
Hey, can you sort those compounds up there by IC50, smallest first? Your reply should list the labels following the order given in the request. I, II, III
(I: 0.036 µM, II: 1.7 µM, III: 6.6 µM)

###

Target: TBK1 (Homo sapiens, UniProt Q9UHD2)
Construct: purchased Promega V3991
Sequence (Q9UHD2 1-729): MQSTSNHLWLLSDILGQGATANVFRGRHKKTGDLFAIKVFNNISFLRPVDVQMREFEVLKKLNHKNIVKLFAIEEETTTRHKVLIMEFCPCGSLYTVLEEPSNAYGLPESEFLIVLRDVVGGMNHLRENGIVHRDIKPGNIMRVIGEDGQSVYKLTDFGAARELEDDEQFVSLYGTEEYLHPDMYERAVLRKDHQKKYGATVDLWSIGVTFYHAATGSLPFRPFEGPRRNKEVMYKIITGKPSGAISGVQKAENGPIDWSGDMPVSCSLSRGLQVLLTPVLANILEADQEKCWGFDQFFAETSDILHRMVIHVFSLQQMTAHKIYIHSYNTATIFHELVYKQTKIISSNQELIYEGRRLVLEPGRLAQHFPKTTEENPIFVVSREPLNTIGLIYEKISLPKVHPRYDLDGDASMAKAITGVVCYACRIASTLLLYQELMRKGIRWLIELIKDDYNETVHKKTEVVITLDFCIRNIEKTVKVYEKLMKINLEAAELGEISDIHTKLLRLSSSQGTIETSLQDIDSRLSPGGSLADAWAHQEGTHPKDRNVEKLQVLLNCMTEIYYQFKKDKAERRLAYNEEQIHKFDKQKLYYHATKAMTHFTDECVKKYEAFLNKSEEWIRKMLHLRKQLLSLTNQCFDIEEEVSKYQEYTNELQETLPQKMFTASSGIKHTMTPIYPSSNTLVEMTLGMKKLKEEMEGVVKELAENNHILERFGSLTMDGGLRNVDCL
Experiment: TBK1 inhibition, ADP-Glo Kinase Assay
Assay type: biochemical
Settings: luminometer
Experimental: Inhibition activities on TNIK, IKKε and TBK1 were evaluated using the compounds of Examples 1 to 254. The inhibition activities on TNIK, IKKε and TBK1 were measured by a luminometer, TNIK/IKKε/TBK1 Kinase Enzyme System (Promega, Ca# V4158; Invitrogen, PR8031B, Promega, Ca# V3991) and ADP-Glo Kinase Assay using ADP-Glo™ Kinase Analysis Kit (Promega, Ca# V9101) and a kinase reaction buffer [40 mM Tris(pH 7.5), 20 mM MgCl2, 0.1 mg/mL BSA] in accordance with the manufacturer's protocol.
property-name: IC50 (µM)

[
  {
    "molecule": "CN1CCN(c2ccc(C(=O)Nc3n[nH]c4ccc(C(=O)NCc5cccc(F)c5)cc34)cc2)CC1",
    "target": "TBK1 (Homo sapiens, UniProt Q9UHD2)",
    "IC50 [µM]": 0.0072
  },
  {
    "molecule": "O=C(NCc1ccsc1)c1ccc2[nH]nc(NC(=O)c3ccc(N4CCOCC4)cc3)c2c1",
    "target": "TBK1 (Homo sapiens, UniProt Q9UHD2)",
    "IC50 [µM]": 0.0015
  },
  {
    "molecule": "CN1CCN(c2ccc(C(=O)Nc3n[nH]c4ccc(C(=O)NCc5ccc(F)cc5)cc34)cc2)CC1",
    "target": "TBK1 (Homo sapiens, UniProt Q9UHD2)",
    "IC50 [µM]": 0.019
  },
  {
    "molecule": "CN1CCN(c2ccc(C(=O)Nc3n[nH]c4ccc(C(=O)NC(CO)c5cccs5)cc34)cc2)CC1 (stereo not shown)",
    "target": "TBK1 (Homo sapiens, UniProt Q9UHD2)",
    "IC50 [µM]": 0.0021
  },
  {
    "molecule": "COc1ccc(C(=O)Nc2n[nH]c3ccc(NCc4cccs4)cc23)cc1",
    "target": "TBK1 (Homo sapiens, UniProt Q9UHD2)",
    "IC50 [µM]": 0.89
  }
]

P. O=C(NCc1ccc(C(F)(F)F)cc1)c1ccc2[nH]nc(NC(=O)c3ccc(N4CCOCC4)cc3)c2c1
Q. CCC(NC(=O)c1ccc2[nH]nc(NC(=O)c3ccc(N4CCOCC4)cc3)c2c1)c1cccs1 (stereo not shown)
Which entry shows the lesser value of IC50 here, P or Q ? Which one? Tell me its label. Q

###

biological target: TNIK (Homo sapiens, UniProt Q9UKE5); construct: purchased Promega V4158; assay: TNIK inhibition, ADP-Glo Kinase Assay; type: biochemical; conditions: luminometer
Sequence (Q9UKE5 1-367 limits assumed): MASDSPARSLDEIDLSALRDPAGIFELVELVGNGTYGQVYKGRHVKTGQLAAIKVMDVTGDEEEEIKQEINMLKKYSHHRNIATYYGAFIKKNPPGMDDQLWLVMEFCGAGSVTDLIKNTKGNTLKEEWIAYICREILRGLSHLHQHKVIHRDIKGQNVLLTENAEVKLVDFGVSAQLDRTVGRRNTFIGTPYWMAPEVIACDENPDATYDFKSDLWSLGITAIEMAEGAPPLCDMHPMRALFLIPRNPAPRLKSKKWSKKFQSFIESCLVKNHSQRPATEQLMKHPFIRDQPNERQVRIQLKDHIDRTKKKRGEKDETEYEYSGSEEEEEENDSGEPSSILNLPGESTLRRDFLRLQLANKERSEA
property-name: IC50 (µM)

Worked cases, answers included:
[
  {
    "compound": "CCc1cnc(-c2cc3[nH]nc(NC(=O)c4ccc(N5CCOCC5)cc4)c3s2)s1 [Example 252]",
    "result-number": 0.41
  },
  {
    "compound": "Cc1cnc(-c2cc3[nH]nc(NC(=O)c4ccc(N5CCN(C)CC5)cc4)c3s2)o1 [Example 225]",
    "result-number": 0.049
  },
  {
    "compound": "Cc1cnc(-c2cc3[nH]nc(-c4ccc(F)cc4)c3s2)o1 [Example 246]",
    "result-number": 0.5
  },
  {
    "compound": "CCNC(=O)c1cc2[nH]nc(-c3ccccc3)c2s1 [Example 238]",
    "result-number": 3.47
  },
  {
    "compound": "COc1ccc(-c2n[nH]c3cc(-c4ncc(C)o4)sc23)cc1 [Example 235]",
    "result-number": 0.34
  }
]

P. COCCNc1ccc(C(=O)Nc2n[nH]c3cc(-c4ncc(C)o4)sc23)cc1 [Example 229]
Q. COc1ccc(C(=O)Nc2n[nH]c3cc(-c4ncc(C)o4)sc23)cc1 [Example 222]
R. CCNC(=O)c1cc2[nH]nc(-c3ccc(N4CCOCC4)cc3)c2s1 [Example 241]
S. Cc1cnc(-c2cc3[nH]nc(NC(=O)c4cccc(F)c4)c3s2)o1 [Example 230]
T. CCNC(=O)c1cc2[nH]nc(-c3ccc(F)cc3)c2s1 [Example 240]
Hello, I need these entries ordered by IC50, highest reading first. Thanks! Answer by writing out the labels in the requested order. T, R, S, Q, P
